Overview of recorded pIC50 for various compounds
# studySystem: APOL1 (Homo sapiens)
# Sequence (O14791 1-398 S342G/I384M): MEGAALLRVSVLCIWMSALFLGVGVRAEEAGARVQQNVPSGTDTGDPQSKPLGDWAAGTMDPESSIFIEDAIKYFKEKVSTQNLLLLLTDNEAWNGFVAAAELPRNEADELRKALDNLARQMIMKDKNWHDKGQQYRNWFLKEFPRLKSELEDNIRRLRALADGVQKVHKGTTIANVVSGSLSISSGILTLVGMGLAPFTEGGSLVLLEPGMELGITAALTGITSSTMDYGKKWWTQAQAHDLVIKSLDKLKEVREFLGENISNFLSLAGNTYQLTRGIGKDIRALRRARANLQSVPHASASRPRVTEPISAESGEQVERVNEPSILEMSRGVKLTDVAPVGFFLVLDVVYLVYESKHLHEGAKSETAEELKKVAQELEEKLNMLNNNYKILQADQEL
# experimentSummary: Multi-Tox Assay (MultiTox-Fluor Multiplex Cytotoxicity Assay in tet-inducible APOL1 T-REx-HEK293 cells; Table 46 does not say which APOL1 variant G0/G1/G2)
# measurementContext: IP50 = IC50 for cell proliferation, APOL1 variant not given
pIC50: −log10 of the molar value.

# compound, result
data = [
    ("C[C@H]1C[C@@]2(C[C@@H](c3cnc(N(C)C)nc3)N1)OCCc1cc(Cl)sc12 (racemic) [Compound 75]", "> 7.30"),
    ("Cc1nn(CCO)cc1[C@@H]1C[C@]2(C[C@H](C)N1)OCCc1cc(Cl)sc12 (racemic) [Compound 158]", "< 6.30"),
    ("C[C@H]1C[C@@]2(C[C@@H](c3cn(Cc4ccccc4S(C)(=O)=O)nn3)N1)OCC(F)(F)c1cc(Cl)sc12 [Compound 347]", "6.30 to 7.30"),
    ("C[C@H]1C[C@@]2(C[C@@H](c3cn(Cc4cccc(O)c4)nn3)N1)OCC(F)(F)c1cc(Cl)sc12 [Compound 320]", "6.30 to 7.30"),
    ("C[C@H]1C[C@@]2(C[C@@H](c3cn(Cc4cccnn4)nn3)N1)OC[C@@H](O)c1cc(Cl)sc12 [Compound 280]", "6.30 to 7.30"),
]

Exercise: // query pIC50 value for entry Cc1nc[nH]c1[C@@H]1C[C@]2(C[C@H](C)N1)OCCc1cc(Cl)sc12 (racemic) [Compound 161]
Solution: < 6.30

Exercise: Please report the recorded pIC50 for C[C@H]1C[C@@]2(C[C@@H](c3ccc[nH]c3=O)N1)OCCc1cc(Cl)sc12 (racemic) [Compound 121] .
Solution: > 7.30

Exercise: Entry under review: Cc1cnc([C@@H]2C[C@]3(C[C@H](C)N2)OCCc2cc(Cl)sc23)o1 (racemic) [Compound 134] . Reported pIC50?
Solution: 6.30 to 7.30

Exercise: Need pIC50 of CC1CC2(CC(c3cnn(CCS(C)(=O)=O)c3)N1)OCCc1cc(Cl)sc12 (centres unmarked) [Compound 46] , thanks.
Solution: > 7.30

Exercise: Name the recorded pIC50 for C[C@H]1CC2(C[C@H](C)N1)OCCc1sc(C(F)(F)F)cc12 (some centres unmarked) [Compound 195] .
Solution: < 6.30

Exercise: Return reported pIC50; argument: C[C@H]1C[C@@]2(C[C@@H](c3cn(Cc4ncc(F)cc4F)nn3)N1)OC[C@@H](O)c1cc(Cl)sc12 [Compound 298]
Solution: 6.30 to 7.30

Exercise: Entry Cc1noc(C)c1Cn1cc([C@@H]2C[C@]3(C[C@H](C)N2)OCC(F)(F)c2cc(Cl)sc23)nn1 [Compound 353] has what pIC50?
Solution: > 7.30

Exercise: Entry under review: C[C@H]1CC2(C[C@@H](c3cn(C)nn3)N1)OCC(C)(C)c1sc(Cl)cc12 (stereo in doubt) [Compound 15] . Reported pIC50?
Solution: > 7.30
